target: Metabotropic glutamate receptor 2 (Homo sapiens); experiment: Positive allosteric modulation of human mGlu2 receptor expressed in CHO cells assessed as glutamate-induced [35S]GTPgammaS binding after 30 mins by liquid scintillation counting
Sequence (Q14416 whole entry): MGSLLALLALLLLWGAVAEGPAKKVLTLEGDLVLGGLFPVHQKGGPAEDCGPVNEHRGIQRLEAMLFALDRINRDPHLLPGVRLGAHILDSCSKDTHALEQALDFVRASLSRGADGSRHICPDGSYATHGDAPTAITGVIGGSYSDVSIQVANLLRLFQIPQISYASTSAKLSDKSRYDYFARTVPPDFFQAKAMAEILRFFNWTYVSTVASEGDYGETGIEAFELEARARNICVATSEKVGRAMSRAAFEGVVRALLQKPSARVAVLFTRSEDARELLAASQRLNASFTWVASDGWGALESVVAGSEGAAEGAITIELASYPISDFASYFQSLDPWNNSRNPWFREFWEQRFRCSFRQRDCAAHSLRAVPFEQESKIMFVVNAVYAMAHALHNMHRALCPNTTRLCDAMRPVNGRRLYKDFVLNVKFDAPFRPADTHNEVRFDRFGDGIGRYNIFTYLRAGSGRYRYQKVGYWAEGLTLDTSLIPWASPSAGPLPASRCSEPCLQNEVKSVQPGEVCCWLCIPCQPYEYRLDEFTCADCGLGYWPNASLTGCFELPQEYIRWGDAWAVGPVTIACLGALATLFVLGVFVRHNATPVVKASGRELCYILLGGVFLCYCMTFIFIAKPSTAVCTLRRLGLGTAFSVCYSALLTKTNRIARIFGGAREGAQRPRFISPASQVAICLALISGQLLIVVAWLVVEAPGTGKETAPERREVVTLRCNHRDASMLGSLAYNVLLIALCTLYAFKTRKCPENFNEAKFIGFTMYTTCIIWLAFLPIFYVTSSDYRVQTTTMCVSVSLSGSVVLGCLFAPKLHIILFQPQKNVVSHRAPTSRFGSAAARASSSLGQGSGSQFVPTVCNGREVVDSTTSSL
ATTRIBUTE_MEASURED: EC50 (nM)

SMILES_ENTRY: Cc1ccc(Oc2ccc(-c3ccn(CC4CC4)c(=O)c3C#N)cc2)c(C)n1
READOUT_UNIT: nM
EC50: 263

SMILES_ENTRY: Cc1ncccc1Oc1ccc(-c2ccn(CCC(C)C)c(=O)c2C#N)cc1
READOUT_UNIT: nM
EC50: 275

SMILES_ENTRY: CC(C)CCn1ccc(-c2ccc(OCC3CC3)cc2)c(C#N)c1=O
READOUT_UNIT: nM
EC50: 290

A: CC(C)CCn1ccc(-c2ccc(Nc3ccncc3)cc2)c(C#N)c1=O
B: Cc1ncccc1Oc1ccc(-c2ccn(CC3CC3)c(=O)c2C#N)cc1Cl
C: CCCCn1ccc(-c2ccc(Oc3cccnc3C)c(Cl)c2)c(C#N)c1=O
D: CC(C)CCn1ccc(-c2ccc(Oc3ccccn3)cc2)c(C#N)c1=O
List these items ordered by EC50, big to small. Please, when replying, give the labels in the order that was requested.
A, D, B, C
(A: 1480 nM, D: 646 nM, B: 230 nM, C: 100 nM)

====

experiment: Drug level in Swiss mouse brain at 10 mg/kg, sc after 1 hr; type: ADME, organism-based; design: dose 10 mg/kg, route subcutaneous; details: read-out: Drug uptake
ATTRIBUTE_MEASURED: concentration at 1 h (ng/g)

Known results for compounds:
SMILES_ENTRY: CCCCn1ccc(-c2ccc(Oc3ccc(C)nc3C)c(Cl)c2)c(C#N)c1=O
READOUT_UNIT: ng/g
concentration at 1 h: 830

SMILES_ENTRY: Cc1ccc(Oc2ccc(-c3ccn(CC4CC4)c(=O)c3C#N)cc2Cl)c(C)n1
READOUT_UNIT: ng/g
concentration at 1 h: 357

SMILES_ENTRY: CCCCn1ccc(-c2ccc(Oc3ccnc(C)c3)cc2)c(C#N)c1=O
READOUT_UNIT: ng/g
concentration at 1 h: 994

A: CCCCn1ccc(-c2ccc(Oc3cccnc3C)cc2)c(C#N)c1=O
B: CCCCn1ccc(-c2ccc(Oc3ccnc(C)c3)c(F)c2)c(C#N)c1=O
Which entry has a larger number for concentration at 1 h, A or B ? Pick one; state its label.
B

====

target: CYP2C9 (Homo sapiens, UniProt P11712); assay: Inhibition of CYP2C9 at 1 uM; format: ADME
Sequence (P11712 whole entry): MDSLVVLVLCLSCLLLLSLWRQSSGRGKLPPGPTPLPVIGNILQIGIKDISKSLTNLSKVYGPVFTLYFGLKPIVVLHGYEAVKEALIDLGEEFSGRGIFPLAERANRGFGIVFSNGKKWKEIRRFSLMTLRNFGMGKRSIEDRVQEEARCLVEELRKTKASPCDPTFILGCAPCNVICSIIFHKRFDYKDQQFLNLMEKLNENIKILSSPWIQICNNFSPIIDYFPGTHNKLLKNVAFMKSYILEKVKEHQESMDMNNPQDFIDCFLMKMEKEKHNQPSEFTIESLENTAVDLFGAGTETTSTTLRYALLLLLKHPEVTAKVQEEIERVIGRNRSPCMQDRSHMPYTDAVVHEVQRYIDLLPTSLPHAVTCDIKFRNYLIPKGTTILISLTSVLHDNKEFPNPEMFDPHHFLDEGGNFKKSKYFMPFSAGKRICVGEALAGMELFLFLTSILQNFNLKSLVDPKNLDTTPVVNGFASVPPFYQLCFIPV
ATTRIBUTE_MEASURED: inhibition at 1 µM (%)
The answer is to be given in %; state only the numeric part.

Returns the measured inhibition at 1 µM for the input compound. Input: CC(C)CCn1ccc(-c2ccc(Oc3ccncc3)cc2)c(C#N)c1=O
82

====

target: CYP2D6 (Homo sapiens, UniProt P10635); assay: Inhibition of CYP2D6 at 5 uM; format: ADME
Sequence (P10635 whole entry): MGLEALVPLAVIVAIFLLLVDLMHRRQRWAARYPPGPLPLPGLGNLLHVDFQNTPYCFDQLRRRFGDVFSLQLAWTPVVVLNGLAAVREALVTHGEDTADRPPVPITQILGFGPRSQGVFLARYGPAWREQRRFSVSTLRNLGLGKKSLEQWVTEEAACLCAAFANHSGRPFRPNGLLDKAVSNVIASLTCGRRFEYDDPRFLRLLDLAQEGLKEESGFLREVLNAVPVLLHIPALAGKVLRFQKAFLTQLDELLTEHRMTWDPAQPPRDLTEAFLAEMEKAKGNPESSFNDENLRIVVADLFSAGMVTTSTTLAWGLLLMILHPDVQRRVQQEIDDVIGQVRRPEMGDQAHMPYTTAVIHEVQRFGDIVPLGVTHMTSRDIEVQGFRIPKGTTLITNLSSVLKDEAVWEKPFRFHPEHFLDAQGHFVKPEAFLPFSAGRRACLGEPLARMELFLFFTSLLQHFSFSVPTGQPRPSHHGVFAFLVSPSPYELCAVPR
ATTRIBUTE_MEASURED: inhibition at 5 µM

What does the record list as inhibition at 5 µM for Cc1cc(Oc2ccc(-c3ccn(CCC(C)C)c(=O)c3C#N)cc2)ccn1 ?
< 50%

====

test: Drug metabolism in human liver microsomes at 5 uM after 15 mins; assay type: ADME, Microsome; details: read-out: Drug metabolism
ATTRIBUTE_MEASURED: metabolised at 0.25 h, 5 µM (%)

Would you please look over these solved cases?
SMILES_ENTRY: Cc1ncccc1Oc1ccc(-c2ccn(CCC(C)C)c(=O)c2C#N)cc1
metabolised at 0.25 h, 5 µM, %: 57
--
SMILES_ENTRY: CC(C)CCn1ccc(-c2ccc(Oc3ccccn3)cc2)c(C#N)c1=O
metabolised at 0.25 h, 5 µM, %: 20
--
SMILES_ENTRY: CCCCn1ccc(-c2ccc(Oc3ccnc(C)c3)cc2F)c(C#N)c1=O
metabolised at 0.25 h, 5 µM, %: 31
--
SMILES_ENTRY: COc1ccc(-c2ccn(CCC(C)C)c(=O)c2C#N)cc1F
metabolised at 0.25 h, 5 µM, %: 35
--
SMILES_ENTRY: COc1ccc(-c2ccn(CCC(C)C)c(=O)c2C#N)cc1OC
metabolised at 0.25 h, 5 µM, %: 26
--
SMILES_ENTRY: Cc1ncccc1Oc1ccc(-c2ccn(CC3CC3)c(=O)c2C#N)cc1
metabolised at 0.25 h, 5 µM, %: 36
--
SMILES_ENTRY: Cc1ncccc1Oc1ccc(-c2ccn(CC3CC3)c(=O)c2C#N)cc1Cl
metabolised at 0.25 h, 5 µM, %: 37
--
SMILES_ENTRY: COc1ccccc1-c1ccn(CCC(C)C)c(=O)c1C#N
metabolised at 0.25 h, 5 µM, %: 38
--
SMILES_ENTRY: CC(C)CCn1ccc(-c2ccc(NC3CCOCC3)c(Cl)c2)c(C#N)c1=O
metabolised at 0.25 h, 5 µM, %: 42
--
SMILES_ENTRY: CCCCn1ccc(-c2ccc(Oc3ccnc(C)c3)c(Cl)c2)c(C#N)c1=O
metabolised at 0.25 h, 5 µM, %: 35

P: CCCCn1ccc(-c2ccc(Oc3cccnc3C)cc2)c(C#N)c1=O
Q: COc1cccc(-c2ccn(CCC(C)C)c(=O)c2C#N)c1
R: CC(C)CCn1ccc(-c2ccc(OCC3CC3)c(Cl)c2)c(C#N)c1=O
hey, can you rank those compounds up there by metabolised at 0.25 h, 5 µM? biggest number first please Quick reminder: the answer is the labels in the order asked.
Q, P, R
